Data credit: the METLIN SMRT retention time set (Domingo-Almenara et al. 2019)

assay: gradient 5% acetonitrile 3 min, to 50% in 2 min, to 85% in 15 min, held 3 min, 100 µL/min; details: column: Zorbax Extend-C18 2.1 x 50 mm; eluents: water / acetonitrile, 0.1% formic acid
Property label: RP-LC retention time (s)

> print(dat)
                                    compound  units  recorded.measurement
 1             CNC(=O)c1sc(-c2ccc(C)cc2)nc1C      s                   785
 2  Cc1ccc(NC(=O)c2csc(-c3ccc(N4CCCC4)nc3)n2)c(C)c1      s                   813
 3  COc1ccc(N2CCN(c3nccc4ccc(C(=O)NCCC5=CCCCC5)cc34)CC2)cc1      s                   888
 4  CCn1ccc(C(=O)N2CCC3(CC2)C(=O)N(C)c2ccccc23)n1      s                   725
 5  Cc1ccc(NS(=O)(=O)c2cn(CC(C)C)c3ncccc23)cc1C      s                  1040
 6  O=C(Cn1c(=O)n(Cc2ccc3c(c2)OCO3)c(=O)c2ncccc21)c1ccccc1      s                   818
 7  CCOc1ccc(NC(=O)N2CCC(n3cnc4cc(F)ccc4c3=O)CC2)cc1      s                   797
 8  Cc1cc(C(=O)CN2CCN(C)CC2)c(C)n1-c1cccc(C(F)(F)F)c1      s                   588
 9  CC(O)C1CCN(Cc2ccc(Br)o2)CC1 (centres undefined)      s                   566
10  Cc1ccsc1C(=O)Nc1cnn(-c2ncncc2N2CCC(C)CC2)c1      s                   918
11  COc1ccccc1C(=O)N1CCC(Oc2cc(N(C)C)ncn2)C1 (centres undefined)      s                   639
12  Cc1ccc(-n2nc3c(N4CCCC(C(=O)NCc5ccccc5Cl)C4)nnc(C)c3c2C)cc1 (centres undefined)      s                   804
13  CC1CCN(S(=O)(=O)c2ccc(-c3nnc(C(=O)NC4CCCC4)o3)cc2)CC1      s                  1030
14  Cc1ccc(CNC(=O)C2CCCN(c3nnc(C)c4c(C)n(-c5ccc(C)cc5)nc34)C2)cc1 (centres undefined)      s                   800

----------
assay: gradient 5% acetonitrile 3 min, to 50% in 2 min, to 85% in 15 min, held 3 min, 100 µL/min; details: column: Zorbax Extend-C18 2.1 x 50 mm; eluents: water / acetonitrile, 0.1% formic acid
Property label: RP-LC retention time (s)

> print(dat)
                               given.smiles        property.label  recorded.measurement
1  COc1cc(-c2nnc(/C=C/c3ccccc3)o2)cc(OC)c1OC  RP-LC retention time                   904
2    O=C(Cn1c(=O)c2cccn2c2ccc(F)cc21)NC1CC1  RP-LC retention time                   685
3  O=C(CN1CCC(c2nc(-c3cccs3)no2)CC1)NCc1ccccc1Cl  RP-LC retention time                   690
